BT-549 data, read-out log10(GI50)
MEASURED PROPERTY: log10(GI50) (log10 of the value in µM)

{"columns": ["SMILES CODE", "log10(GI50)"],
 "data": [
  ["O=C(N/N=C/c1cc(Cl)c[nH]1)c1[nH]c2ccc(Br)cc2c1-c1ccccc1", -0.59],
  ["CCc1cc[nH]c1/C=N/NC(=O)c1[nH]c2ccc(Br)cc2c1-c1ccccc1", 0.43],
  ["O=C(N/N=C/c1[nH]ccc1Cl)c1[nH]c2ccc(Br)cc2c1-c1ccccc1", 0.55],
  ["Cc1[nH]c(/C=N/NC(=O)c2[nH]c3ccc(Br)cc3c2-c2ccccc2)c(C)c1[N+](=O)[O-]", 0.44],
  ["O=C(N/N=C/c1cc[nH]c1)c1[nH]c2ccc(Br)cc2c1-c1ccccc1", 0.66],
  ["Cc1cc(C)c(/C=N/NC(=O)c2[nH]c3ccc(Br)cc3c2-c2ccccc2)[nH]1", 0.70]
]}

====

- System: SK-MEL-5
- MEASUREMENT NOTES: NCI60 five-dose screen
- Format: cell-based, human
- CONDITION INFO: SK-MEL-5, melanoma; read-out: LC50 (the source's name)
MEASURED PROPERTY: CC50 (µM)

{"columns": ["SMILES CODE", "MEASURED TARGET", "REPORTED VALUE"],
 "data": [
  ["Cc1cc(C)c(/C=N/NC(=O)c2[nH]c3ccc(Br)cc3c2-c2ccccc2)[nH]1", "SK-MEL-5", 28.8]
]}

====

- System: T-47D
- MEASUREMENT NOTES: NCI60 five-dose screen
- Format: cell-based
- CONDITION INFO: Homo sapiens, T47D, breast cancer, read-out: LC50 (the source's name)
We begin with a simple list: items and their reported CC50.

{"columns": ["SMILES CODE", "INEQUALITY SYMBOL", "CC50 (µM)"],
 "data": [
  ["O=C(N/N=C/c1ccc([N+](=O)[O-])[nH]1)c1[nH]c2ccc(Br)cc2c1-c1ccccc1", "=", 59.6],
  ["CCOC(=O)c1ccc(/C=N/NC(=O)c2[nH]c3ccc(Br)cc3c2-c2ccccc2)[nH]1", ">", 100],
  ["CCc1ccc(/C=N/NC(=O)c2[nH]c3ccc(Br)cc3c2-c2ccccc2)[nH]1", "=", 52.7],
  ["Cc1[nH]c(/C=N/NC(=O)c2[nH]c3ccc(Br)cc3c2-c2ccccc2)c(C)c1[N+](=O)[O-]", "=", 33.5]
]}

====

- Test system: OVCAR-5
- MEASUREMENT NOTES: NCI60 five-dose screen
- Format: cell-based
- CONDITION INFO: Homo sapiens; OVCAR-5, ovarian cancer; read-out: LC50 (the source's name)

{"columns": ["SMILES CODE", "CC50 (µM)"],
 "data": [
  ["O=C(N/N=C/c1[nH]ccc1Cl)c1[nH]c2ccc(Br)cc2c1-c1ccccc1", 35.7],
  ["O=C(N/N=C/c1cc(Cl)c[nH]1)c1[nH]c2ccc(Br)cc2c1-c1ccccc1", 36],
  ["CCOC(=O)c1ccc(/C=N/NC(=O)c2[nH]c3ccc(Br)cc3c2-c2ccccc2)[nH]1", 38],
  ["O=C(N/N=C/c1ccc[nH]1)c1[nH]c2ccc(Br)cc2c1-c1ccccc1", 30.8],
  ["O=C(N/N=C/c1cc(Br)c(Br)[nH]1)c1[nH]c2ccc(Br)cc2c1-c1ccccc1", 40.2],
  ["CCOC(=O)c1c[nH]c(/C=N/NC(=O)c2[nH]c3ccc(Br)cc3c2-c2ccccc2)c1", 42.9]
]}

====

- Tested on: SK-MEL-5
- MEASUREMENT NOTES: NCI60 five-dose screen
- Assay type: cell-based, human
- CONDITION INFO: Homo sapiens, SK-MEL-5, SK-MEL-5, melanoma; read-out: LC50 (the source's name)
The threshold is 20 µM. Values of CC50 beneath it are tagged true (1); values meeting or exceeding it are tagged false (0).

{"columns": ["SMILES CODE", "MEASURED TARGET", "CAT"],
 "data": [
  ["O=C(N/N=C/c1cc(Br)c[nH]1)c1[nH]c2ccc(Br)cc2c1-c1ccccc1", "SK-MEL-5", "true (1)"],
  ["Cc1[nH]c(/C=N/NC(=O)c2[nH]c3ccc(Br)cc3c2-c2ccccc2)c(C)c1[N+](=O)[O-]", "SK-MEL-5", "true (1)"],
  ["O=C(N/N=C/c1ccc(C(=O)N2CCOCC2)[nH]1)c1[nH]c2ccc(Br)cc2c1-c1ccccc1", "SK-MEL-5", "true (1)"],
  ["Cc1cc(C)c(/C=N/NC(=O)c2[nH]c3ccc(Br)cc3c2-c2ccccc2)[nH]1", "SK-MEL-5", "true (1)"],
  ["O=C(N/N=C/c1cc([N+](=O)[O-])c[nH]1)c1[nH]c2ccc(Br)cc2c1-c1ccccc1", "SK-MEL-5", "false (0)"],
  ["CCc1cc[nH]c1/C=N/NC(=O)c1[nH]c2ccc(Br)cc2c1-c1ccccc1", "SK-MEL-5", "false (0)"],
  ["CCOC(=O)c1c[nH]c(/C=N/NC(=O)c2[nH]c3ccc(Br)cc3c2-c2ccccc2)c1", "SK-MEL-5", "true (1)"],
  ["O=C(N/N=C/c1ccc([N+](=O)[O-])[nH]1)c1[nH]c2ccc(Br)cc2c1-c1ccccc1", "SK-MEL-5", "true (1)"],
  ["O=C(N/N=C/c1cc(Br)c(Br)[nH]1)c1[nH]c2ccc(Br)cc2c1-c1ccccc1", "SK-MEL-5", "true (1)"],
  ["CCc1c[nH]c(/C=N/NC(=O)c2[nH]c3ccc(Br)cc3c2-c2ccccc2)c1", "SK-MEL-5", "true (1)"],
  ["O=C(N/N=C/c1cc[nH]c1)c1[nH]c2ccc(Br)cc2c1-c1ccccc1", "SK-MEL-5", "true (1)"],
  ["CCOC(=O)c1cc(/C=N/NC(=O)c2[nH]c3ccc(Br)cc3c2-c2ccccc2)c[nH]1", "SK-MEL-5", "true (1)"],
  ["Cn1cccc1/C=N/NC(=O)c1[nH]c2ccc(Br)cc2c1-c1ccccc1", "SK-MEL-5", "false (0)"],
  ["O=C(N/N=C/c1[nH]ccc1Cl)c1[nH]c2ccc(Br)cc2c1-c1ccccc1", "SK-MEL-5", "false (0)"],
  ["O=C(N/N=C/c1cc(Cl)c[nH]1)c1[nH]c2ccc(Br)cc2c1-c1ccccc1", "SK-MEL-5", "true (1)"],
  ["CCc1ccc(/C=N/NC(=O)c2[nH]c3ccc(Br)cc3c2-c2ccccc2)[nH]1", "SK-MEL-5", "true (1)"],
  ["CCOC(=O)c1ccc(/C=N/NC(=O)c2[nH]c3ccc(Br)cc3c2-c2ccccc2)[nH]1", "SK-MEL-5", "true (1)"],
  ["O=C(N/N=C/c1ccc[nH]1)c1[nH]c2ccc(Br)cc2c1-c1ccccc1", "SK-MEL-5", "true (1)"]
]}

====

- Tested on: ACHN
- MEASUREMENT NOTES: NCI60 five-dose screen
- Assay type: cell-based
- CONDITION INFO: Homo sapiens, renal cancer
MEASURED PROPERTY: log10(GI50) (log10 of the value in nM)

{"columns": ["MOLECULE", "log10(GI50)"],
 "data": [
  ["Cc1[nH]c(/C=N/NC(=O)c2[nH]c3ccc(Br)cc3c2-c2ccccc2)c(C)c1[N+](=O)[O-] [Derivative 3r]", 3.52],
  ["CCOC(=O)c1ccc(/C=N/NC(=O)c2[nH]c3ccc(Br)cc3c2-c2ccccc2)[nH]1 [Derivative 3i]", 3.27],
  ["O=C(N/N=C/c1cc(Br)c(Br)[nH]1)c1[nH]c2ccc(Br)cc2c1-c1ccccc1 [Derivative 3f]", 3.41],
  ["O=C(N/N=C/c1[nH]ccc1Cl)c1[nH]c2ccc(Br)cc2c1-c1ccccc1 [Derivative 3g]", 2.80],
  ["Cn1cccc1/C=N/NC(=O)c1[nH]c2ccc(Br)cc2c1-c1ccccc1 [Derivative 3d]", 2.24],
  ["CCc1cc[nH]c1/C=N/NC(=O)c1[nH]c2ccc(Br)cc2c1-c1ccccc1 [Derivative 3u]", 3.51],
  ["O=C(N/N=C/c1cc(Br)c[nH]1)c1[nH]c2ccc(Br)cc2c1-c1ccccc1 [Derivative 3e]", 2.62],
  ["O=C(N/N=C/c1cc([N+](=O)[O-])c[nH]1)c1[nH]c2ccc(Br)cc2c1-c1ccccc1 [Derivative 3q]", 2.90],
  ["O=C(N/N=C/c1cc(Cl)c[nH]1)c1[nH]c2ccc(Br)cc2c1-c1ccccc1 [Derivative 3h]", 2.69],
  ["O=C(N/N=C/c1cc[nH]c1)c1[nH]c2ccc(Br)cc2c1-c1ccccc1 [Derivative 3b]", 3.23],
  ["O=C(N/N=C/c1ccc[nH]1)c1[nH]c2ccc(Br)cc2c1-c1ccccc1 [Derivative 3a]", 2.55],
  ["CCOC(=O)c1c[nH]c(/C=N/NC(=O)c2[nH]c3ccc(Br)cc3c2-c2ccccc2)c1 [Derivative 3j]", 3.53],
  ["O=C(N/N=C/c1ccc(C(=O)N2CCOCC2)[nH]1)c1[nH]c2ccc(Br)cc2c1-c1ccccc1 [Derivative 3n]", 3.66],
  ["O=C(N/N=C/c1ccc([N+](=O)[O-])[nH]1)c1[nH]c2ccc(Br)cc2c1-c1ccccc1 [Derivative 3p]", 3.10]
]}

Values were extracted from paper PMC12203311.
